test system: MDA-N; assay: NCI tumour cell line growth inhibition, 48 h
property_measured: TGI (µM)

compound: CC1=NN(c2cccc(Cl)c2)C2(SCC(=O)N2c2nc3ccccc3s2)/C1=C\c1cccs1 (stereo not given)
value_modifier: =
result_number: 52.4

compound: CCOC(=O)C(NC(=O)c1ccco1)(Nc1nc2ccc(OCC)cc2s1)C(F)(F)F (stereo not given)
value_modifier: =
result_number: 60

compound: CCOC(=O)C1=NN(c2ccc(C)cc2)C2=CC(C)=NN(C)C(=S)N21
value_modifier: >
result_number: 100

compound: COc1ccc(-n2cnc3c2NC(C)(C)N=C3C(N)=O)c(OC)c1
value_modifier: >
result_number: 100

compound: CCSc1n/c(=C\c2ccco2)c2nncn12
value_modifier: >
result_number: 100
